Experiment: chemical genetic growth profiling, strain panel (AID 1159580);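 further: tested at 20 µM; growth read once vehicle control cultures reached saturation at 30 °C; 1 = growth at the plate median or of vehicle wells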
Details: S. cerevisiae deletion strains, growth OD, locus YDL132W, strain cdc53, hits give low values
Out of some 5,500 compounds screened, about 2,000 (36%) were called active. Roughly 18% stayed inconclusive and do not appear here. This is one part of the list.
# normalized growth annotations
Quick one: just the number, no unit, thanks!

# count of solved cases: 8
> print(dat)
                                   compound  recorded.endpoint  numeric.result
1  COc1ccccc1N1CCN(C(=O)C(C)c2ccc(CC(C)C)cc2)CC1 (stereo not given)  normalized growth           0.988
2   COc1ccc(N=C2SCC(c3ccc(C)cc3)=NN2CCO)cc1  normalized growth            0.98
3            CCn1nc(C)cc1C(=O)Sc1cccc(Br)c1  normalized growth           0.922
4  Clc1cccc(Cl)c1C1CC(c2ccccc2)=Nc2ccccc2S1 (stereo not given)  normalized growth           0.994
5         C/C(=N/NC(N)=S)c1csc(-c2ccccc2)n1  normalized growth           0.942
6     O=S(=O)(c1cc(Cl)ccc1Cl)N1CCc2ccccc2C1  normalized growth           0.973
7  N#Cc1nccnc1N1CCN(C(=O)Nc2cc(Cl)cc(Cl)c2)CC1  normalized growth           0.967
8  O=C(NC(=S)NNc1ncc(C(F)(F)F)cc1Cl)c1cccs1  normalized growth           0.588

# normalized growth (compound: OC(COCc1ccccc1)Cn1c2ccccc2c2ccccc21 (stereo not given) ) is 0.952

# normalized growth (compound: O=C(Nc1ccccc1C(=O)O)OCC1c2ccccc2-c2ccccc21 ) is 0.985

----------
Assay: chemical genetic growth profiling, strain panel (AID 1159580)
Conditions: S. cerevisiae deletion strains, growth OD, locus YPL078C, strain atp4, hits give low values
In all, about 5,500 compounds went through this assay and about 2,000 (36%) were called active. Roughly 18% stayed inconclusive and do not appear here. The list shows a part of the results.
recorded.endpoint: normalized growth
Quick one: just the number, no unit, thanks!

# count of solved cases: 2
> print(dat)
                                   compound  numeric.result
1  COC(=O)N/N=C\c1c[n+]([O-])c2ccccc2[n+]1[O-]           0.971
2  O=c1c(O)cc([C@H]2Oc3cc(O)cc(O)c3C[C@H]2O)cc2c([C@H]3Oc4cc(O)cc(O)c4C[C@H]3O)cc(O)c(O)c12            1.01

# normalized growth (compound: CN[C@H]1CC[C@@H](c2ccc(Cl)c(Cl)c2)c2ccccc21 ) is 0.922

# normalized growth (compound: O=C1CC2(CCCC2)CC(=O)N1CCCCN1CCN(c2ncccn2)CC1 ) is 1

# normalized growth (compound: Cc1cc(N)c2ccccc2[n+]1CCCCCCCCCC[n+]1c(C)cc(N)c2ccccc21 ) is 0.0678

# normalized growth (compound: O=C(/C=C(\O)c1ccccc1)c1ccccc1O ) is 0.795

# normalized growth (compound: OC1(c2ccc(Cl)c(C(F)(F)F)c2)CCN(CCCC(c2ccc(F)cc2)c2ccc(F)cc2)CC1 ) is 0.216

# normalized growth (compound: C[C@@H]1CCC2[C@](C)(CO)[C@@H](O)CC[C@]2(C)[C@@]12CC[C@@](CO)(CCO)O2 (stereo not given in full) ) is 0.995

# normalized growth (compound: NCCCC(O)(P(=O)(O)O)P(=O)(O)O ) is 0.976

# normalized growth (compound: CN(C)CC[C@H](c1ccc(Cl)cc1)c1ccccn1 ) is 0.989

----------
Assay: chemical genetic growth profiling, strain panel (AID 1159580)
Conditions: S. cerevisiae deletion strains, growth OD, locus YNL153C, strain GIM3, hits give low values
Among all 5,500 compounds or so, about 2,000 (36%) were called active. Roughly 18% stayed inconclusive and do not appear here. This is one part of the list.
# normalized growth annotations
Quick one: just the number, no unit, thanks!

# count of solved cases: 5
molecule	recorded.endpoint	numeric.result
CCn1nc(C)cc1C(=O)O	normalized growth	1
CC1CC(=O)Nc2ccccc2N1C(=O)c1ccc([N+](=O)[O-])cc1 (stereo not given)	normalized growth	1.02
CC(=O)OC1CC[C@@]2(C)C(CCC3C2CC[C@]2(C)C(C4=CC(=O)OC4)C(OC(C)=O)CC32O)C1 (stereo not given in full)	normalized growth	1
COc1ccc(Br)c(-c2nnc(-c3ccccc3[N+](=O)[O-])o2)c1	normalized growth	1
COc1cc(C)c2c(=O)c3c(O)cc(OC)cc3oc2c1	normalized growth	1.01

# normalized growth (molecule: COc1cc(O)c2c(=O)cc(-c3ccc(OC)c(-c4c(O)cc(O)c5c(=O)cc(-c6ccc(O)cc6)oc45)c3)oc2c1 ) is 0.912

# normalized growth (molecule: CC12CCC3C(CCC4(O)CC(O)CCC34/C=N/NC(N)=O)C1(O)CCC2C1=CC(=O)OC1 (stereo not given) ) is 0.991

# normalized growth (molecule: O=C1NC(=S)NC(=O)C1=Cc1cccc2ccccc12 ) is 0.979

# normalized growth (molecule: CN1c2ccccc2C(=O)/C(=N/Nc2ccccc2F)S1(=O)=O ) is 1.02

# normalized growth (molecule: C[C@]12CC[C@H](O)C[C@H]1CCC1C2CC[C@]2(C)[C@@H](C3=CC(=O)OC3)[C@@H](O)C[C@]12O (stereo not given in full) ) is 1.04

# normalized growth (molecule: N#Cc1c(Cl)cccc1N1CCCC1 ) is 0.833

# normalized growth (molecule: COc1cc(C)c2c(=O)c3c(O)cc(O)cc3oc2c1 ) is 0.989

# normalized growth (molecule: CCCCCC(O)C1C(=O)OC(C)C(O)/C=C/C=C/C=C/C=C/C=C(\C)C(O)CC(O)CC(O)CC(O)CC(O)CC(O)CC1O (stereo not given) ) is 0.994

----------
Experiment: chemical genetic growth profiling, strain panel (AID 1159580);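 further: tested at 20 µM; growth read once vehicle control cultures reached saturation at 30 °C; 1 = growth at the plate median or of vehicle wells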
Details: S. cerevisiae deletion strains, growth OD, locus YDL040C, strain nat1
In all, about 5,500 compounds went through this assay and about 2,000 (36%) were called active. Roughly 18% stayed inconclusive and do not appear here. No stated cut-off is given here; in the data, active means normalized growth mostly below about 0.91 (no sharp cut-off); inconclusive means no clear call, values can overlap the other calls; inactive means mostly above about 0.92. The list shows a part of the results.
Can you answer with just one of these options? yes for active, no for inactive

Below are worked cases with known answers.
> print(dat)
         substance.smiles  label
1  CNC[C@H](O)c1cccc(O)c1     no
2   CC(C)c1cccc(C(C)C)c1O     no

From here, focus on the item given below.
## Task Hi, sorry to bother you, what did the test record for CC(C)c1cccc(O)c(=O)c1 ?
## Result yes

----------
Experiment: chemical genetic growth profiling, strain panel (AID 1159580);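 further: tested at 20 µM; growth read once vehicle control cultures reached saturation at 30 °C; 1 = growth at the plate median or of vehicle wells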
Settings: S. cerevisiae deletion strains, growth OD, locus YIR030C, strain dcg1, hits give low values
About 2,000 (36%) of roughly 5,500 compounds were called active. Not shown: some 18% with an inconclusive outcome. The list shows a part of the results.
recorded.endpoint: normalized growth
Quick one: just the number, no unit, thanks!

# count of solved cases: 3
> print(dat)
                                   compound  numeric.result
1  COc1ccccc1N1CCN(CCCNc2cc(=O)n(C)c(=O)n2C)CC1           0.983
2  CCOC(=O)CC(SP(=S)(OC)OC)C(=O)OCC (stereo unspecified)               1
3  CC1(C)C(O)CC(=O)C2(C)C1CC(O)C1(C)C2CCC2(C)C(c3ccoc3)OC(=O)C3OC321 (stereo unspecified)            1.01

# normalized growth (compound: NS(=O)(=O)c1cc2c(cc1C(F)(F)F)NC(Cc1ccccc1)NS2(=O)=O (stereo unspecified) ) is 1.01

# normalized growth (compound: Cc1ccc(C(C)C)c(O)c1C(=O)O ) is 0.949

# normalized growth (compound: CCOC(=O)C1=C(O)C(=O)N(Cc2ccccc2)C1 ) is 1.01

----------
Assay: chemical genetic growth profiling, strain panel (AID 1159580);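 further: tested at 20 µM; growth read once vehicle control cultures reached saturation at 30 °C; 1 = growth at the plate median or of vehicle wells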
Conditions: S. cerevisiae deletion strains, growth OD, locus YER002W, strain NOP16, hits give low values
Hit rate of the full screen: of about 5,500 compounds, about 2,000 (36%) were called active. Another 18% or so got no clear call; they are omitted. This is one part of the list.
Labelling: normalized growth reported below 1 becomes Satisfied; at or above becomes Not satisfied.

> print(dat)
                           substance.smiles          label
1  Cc1cc(N)c2ccccc2[n+]1CCCCCCCCCCCCCC[n+]1c(C)cc(N)c2ccccc21      Satisfied
2  CCCN(CCC)C(=O)Cc1c(-c2ccc(Cl)cc2)nc2c(Cl)cc(Cl)cn12  Not satisfied
3  CCCN(CC1CC1)c1nc(C)nc(Nc2c(Cl)cc(Cl)cc2Cl)c1Cl  Not satisfied

## Task Would you kindly verify if normalized growth of Cc1cc(N)c2ccccc2[n+]1CCCCCCCCCC[n+]1c(C)cc(N)c2ccccc21 is strictly less than 1?
## Result Satisfied
